target: Human C3 (Complement tech cat #A113c) (human, UniProt P01024 23-1663); assay: cell-based or functional assay
Sequence (P01024 23-1663 limits assumed): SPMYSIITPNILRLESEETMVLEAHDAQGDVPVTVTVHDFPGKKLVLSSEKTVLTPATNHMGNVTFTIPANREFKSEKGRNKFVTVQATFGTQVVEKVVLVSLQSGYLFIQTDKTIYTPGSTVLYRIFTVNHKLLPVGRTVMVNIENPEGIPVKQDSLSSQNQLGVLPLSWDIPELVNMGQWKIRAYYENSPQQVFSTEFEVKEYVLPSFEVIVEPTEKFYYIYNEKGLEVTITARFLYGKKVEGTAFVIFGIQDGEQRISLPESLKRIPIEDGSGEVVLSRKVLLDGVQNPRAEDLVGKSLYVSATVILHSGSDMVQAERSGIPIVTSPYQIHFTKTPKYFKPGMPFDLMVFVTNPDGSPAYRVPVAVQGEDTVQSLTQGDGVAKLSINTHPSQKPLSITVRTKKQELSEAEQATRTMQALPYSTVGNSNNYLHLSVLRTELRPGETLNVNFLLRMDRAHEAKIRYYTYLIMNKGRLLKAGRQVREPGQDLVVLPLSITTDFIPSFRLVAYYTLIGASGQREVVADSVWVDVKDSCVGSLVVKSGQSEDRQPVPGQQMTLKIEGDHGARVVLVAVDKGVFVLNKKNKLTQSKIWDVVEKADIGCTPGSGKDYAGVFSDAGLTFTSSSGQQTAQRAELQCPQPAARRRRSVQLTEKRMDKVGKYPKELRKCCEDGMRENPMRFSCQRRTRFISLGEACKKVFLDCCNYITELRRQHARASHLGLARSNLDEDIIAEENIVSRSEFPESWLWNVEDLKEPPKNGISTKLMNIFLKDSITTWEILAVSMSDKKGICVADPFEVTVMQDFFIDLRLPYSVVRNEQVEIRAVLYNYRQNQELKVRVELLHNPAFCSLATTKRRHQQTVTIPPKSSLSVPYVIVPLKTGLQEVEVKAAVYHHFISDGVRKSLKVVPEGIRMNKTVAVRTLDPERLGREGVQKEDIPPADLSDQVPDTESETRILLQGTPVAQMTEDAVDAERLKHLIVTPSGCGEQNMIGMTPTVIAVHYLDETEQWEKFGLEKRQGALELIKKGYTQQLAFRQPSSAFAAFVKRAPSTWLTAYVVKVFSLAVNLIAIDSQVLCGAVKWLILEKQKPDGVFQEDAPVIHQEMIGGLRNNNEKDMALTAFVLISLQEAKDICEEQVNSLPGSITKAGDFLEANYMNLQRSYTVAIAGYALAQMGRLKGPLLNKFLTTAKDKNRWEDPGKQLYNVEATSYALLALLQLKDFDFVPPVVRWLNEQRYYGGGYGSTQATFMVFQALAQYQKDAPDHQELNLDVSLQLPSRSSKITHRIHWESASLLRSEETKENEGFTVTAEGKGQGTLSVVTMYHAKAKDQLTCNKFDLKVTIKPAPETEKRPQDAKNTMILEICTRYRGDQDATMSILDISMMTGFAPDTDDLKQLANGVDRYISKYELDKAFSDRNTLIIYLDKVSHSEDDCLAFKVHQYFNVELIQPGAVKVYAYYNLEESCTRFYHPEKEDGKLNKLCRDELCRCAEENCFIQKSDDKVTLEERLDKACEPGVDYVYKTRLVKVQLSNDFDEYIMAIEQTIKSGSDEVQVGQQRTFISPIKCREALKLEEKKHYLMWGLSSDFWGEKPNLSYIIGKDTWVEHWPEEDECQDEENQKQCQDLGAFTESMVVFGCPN
Positions of bridges follow the written chain, without caps; N, C: chain ends.
Recorded Endpoint: CP hemolysis IC50 (nM)
The response must be a number in nM with no trailing unit.

Looking up Ac-ICIWQDWGEHRCT-NH2 (disulfide 2-12; SMILES CC[C@H](C)[C@H](NC(C)=O)C(=O)N[C@H]1CSSC[C@@H](C(=O)N[C@H](C(N)=O)[C@@H](C)O)NC(=O)[C@H](CCCNC(=N)N)NC(=O)[C@H](Cc2c[nH]cn2)NC(=O)[C@H](CCC(=O)O)NC(=O)CNC(=O)[C@H](Cc2c[nH]c3ccccc23)NC(=O)[C@H](CC(=O)O)NC(=O)[C@H](CCC(N)=O)NC(=O)[C@H](Cc2c[nH]c3ccccc23)NC(=O)[C@H]([C@@H](C)CC)NC1=O) [Compound 2] , I found its CP hemolysis IC50 recorded as 94
